- EXPERIMENTAL_DETAILS: Primary qHTS for Huh7 cytotoxicity: counterscreen for inhibitors of MERS-S pseudotyped particle cell entry (AID 1479147)
- RUN_CONDITIONS: cell viability read-out; series mostly up to 57.1 µM
Records with an inconclusive call do not appear. Active and inactive are the calls of the source. The call rests on the fitted dose curve.
Your answer must be one of the following: 1 = active, 0 = inactive

[[record]]
molecule = "CC(C)N=c1cc2n(-c3ccc(Cl)cc3)c3ccccc3nc-2cc1Nc1ccc(Cl)cc1"
qualitative_label = 0

[[record]]
molecule = "CN(CC(O)CO)C(=O)c1c(I)c(NC(=O)C(CO)CO)c(I)c(C(=O)N(C)CC(O)CO)c1I (stereo not given)"
qualitative_label = 0

[[record]]
molecule = "CCCCN(CCCC)C(=S)[S-].CCCCN(CCCC)C(=S)[S-].[Zn+2]"
qualitative_label = 0


QUERY: Could you check what this test reported for C=C1/C(=C/C=C2\CCC[C@]3(C)[C@@H]([C@H](C)CCCC(O)(C(F)(F)F)C(F)(F)F)CC[C@@H]23)C[C@@H](O)C[C@@H]1O ?
RESULT: 0

QUERY: Could you check what this test reported for C/C(=C\C(=O)OCCCCCCCCC(=O)O)C[C@@H]1OC[C@H](C[C@@H]2O[C@H]2[C@@H](C)[C@H](C)O)[C@@H](O)[C@H]1O ?
RESULT: 0

QUERY: Could you check what this test reported for CCOc1nc2cccc(C(=O)O)c2n1Cc1ccc(-c2ccccc2-c2noc(=O)[nH]2)cc1 ?
RESULT: 0

QUERY: Could you check what this test reported for COc1ccc(CCNCC(O)COc2cccc(C)c2)cc1OC (stereo not given) ?
RESULT: 0

QUERY: Could you check what this test reported for CN1CCN(C2=Nc3ccccc3Cc3ccccc32)CC1 ?
RESULT: 0

QUERY: Could you check what this test reported for c1ccc2ccccc2c1 ?
RESULT: 0

QUERY: Could you check what this test reported for CC(C)N[C@@H]1CCn2c(=O)[nH]c3cccc(c32)[C@H]1O ?
RESULT: 0

QUERY: Could you check what this test reported for COC(=O)N[C@H](C(=O)N1CCC[C@H]1c1ncc(-c2ccc(-c3ccc(-c4cnc([C@@H]5CCCN5C(=O)[C@@H](NC(=O)OC)C(C)C)[nH]4)cc3)cc2)[nH]1)C(C)C ?
RESULT: 0

QUERY: Could you check what this test reported for C[C@H]1O[C@]2(CS1)CN1CCC2CC1 ?
RESULT: 0

QUERY: Could you check what this test reported for CN=C(NC)NCc1ccccc1 ?
RESULT: 0

QUERY: Could you check what this test reported for CCCCCCC(=O)O[C@H]1CC[C@H]2[C@@H]3CCc4cc(O)ccc4[C@H]3CC[C@]12C ?
RESULT: 0

QUERY: Could you check what this test reported for NC(=O)C1(N2CCCCC2)CCN(CCCN2c3ccccc3CCc3ccccc32)CC1 ?
RESULT: 1

QUERY: Could you check what this test reported for CC(C(=O)O)c1ccc(C2CCCCC2)c2ccccc12 (stereo not given) ?
RESULT: 0

QUERY: Could you check what this test reported for O=P(O)(O)OP(=O)(O)O ?
RESULT: 0

QUERY: Could you check what this test reported for CCOC(=O)c1c[nH]c2cc(OCC(C)C)c(OCC(C)C)cc2c1=O ?
RESULT: 0

QUERY: Could you check what this test reported for CC1(O)CCC(C(C)(C)O)CC1 (stereo not given) ?
RESULT: 0

QUERY: Could you check what this test reported for CC(C)(C)C(=O)OCOC(=O)[C@@H]1N2C(=O)[C@@H](N=CN3CCCCCC3)[C@H]2SC1(C)C ?
RESULT: 0

====

- EXPERIMENTAL_DETAILS: qHTS Assay for Identification of Small Molecule Agonists for Hypoxia Response Element Signaling Pathway (AID 914); further: % of control where 0% means no effect
- RUN_CONDITIONS: ME-180 (cervical carcinoma) HRE-bla reporter, beta-lactamase ratio, CoCl2, 17 h; stronger effect = higher value
Records with an inconclusive call do not appear.
Let's look at some molecules and their measured activation.
Write the value in % as a bare number.

Observe how each entry below is paired with its result.
[[record]]
chemical_string = "NNCc1cccc(O)c1"
unit_annotation = "%"
value_observed = 15.1

[[record]]
chemical_string = "CCC[C@@](C)(COC(N)=O)COC(=O)NC(C)C"
unit_annotation = "%"
value_observed = -3.35

[[record]]
chemical_string = "CC(C)CN1CC[C@@]2(CCCN(C(=O)Oc3ccccc3)C2)C1"
unit_annotation = "%"
value_observed = -4.64

[[record]]
chemical_string = "C[C@@]12CC[C@H]3[C@@H](CC[C@@H]4C[C@H]5S[C@H]5C[C@]43C)[C@H]1CC[C@H]2O"
unit_annotation = "%"
value_observed = 1.68

[[record]]
chemical_string = "O=C(Nc1ccccc1)N1CC2(CCN(C(=O)Oc3ccccc3)CC2)C1"
unit_annotation = "%"
value_observed = -6.7


Now, please, on to the next molecule.
Value of measured activation for the entry c1csc(CN2CC[C@@]3(CCCNC3)C2)n1 : 9.27

====

- STUDY_SYSTEM: Rap guanine nucleotide exchange factor 3 (Homo sapiens) (UniProt O95398)
- Sequence (O95398 whole entry, looked up): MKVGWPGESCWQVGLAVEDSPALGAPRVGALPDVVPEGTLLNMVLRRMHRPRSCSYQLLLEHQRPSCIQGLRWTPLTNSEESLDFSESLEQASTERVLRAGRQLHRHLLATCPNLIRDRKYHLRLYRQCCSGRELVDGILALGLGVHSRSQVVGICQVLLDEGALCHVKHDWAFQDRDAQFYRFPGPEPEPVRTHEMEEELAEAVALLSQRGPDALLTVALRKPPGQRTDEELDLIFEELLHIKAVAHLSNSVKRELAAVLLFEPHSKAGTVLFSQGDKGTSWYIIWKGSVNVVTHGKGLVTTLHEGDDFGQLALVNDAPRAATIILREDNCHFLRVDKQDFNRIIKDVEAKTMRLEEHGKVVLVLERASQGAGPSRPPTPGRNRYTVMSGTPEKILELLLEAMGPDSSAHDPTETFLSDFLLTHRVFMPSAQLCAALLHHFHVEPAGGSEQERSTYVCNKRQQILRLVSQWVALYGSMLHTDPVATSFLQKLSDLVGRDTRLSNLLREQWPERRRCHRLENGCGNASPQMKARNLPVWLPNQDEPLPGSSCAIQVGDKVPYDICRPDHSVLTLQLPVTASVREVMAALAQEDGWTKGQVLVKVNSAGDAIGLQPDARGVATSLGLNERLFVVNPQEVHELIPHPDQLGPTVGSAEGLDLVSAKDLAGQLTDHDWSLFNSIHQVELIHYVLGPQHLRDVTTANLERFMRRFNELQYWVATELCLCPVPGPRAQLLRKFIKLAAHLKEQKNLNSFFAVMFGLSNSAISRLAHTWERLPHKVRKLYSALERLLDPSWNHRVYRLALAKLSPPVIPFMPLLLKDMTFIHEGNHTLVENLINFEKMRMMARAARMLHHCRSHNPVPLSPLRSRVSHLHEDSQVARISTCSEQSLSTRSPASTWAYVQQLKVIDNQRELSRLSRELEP
- EXPERIMENTAL_DETAILS: Confirmatory qHTS for agonist of cAMP-regulated guanine nucleotide exchange factor 3 (EPAC1) (AID 1645881);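 further: EPAC1 catalysed release of BODIPY-GDP from Rap1B seen as fluorescence loss; 100% = effect of cAMP agonist control; nearly all actives have a fitted effect of over 75% in size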
- RUN_CONDITIONS: EPAC1 Rap1B BODIPY-GDP exchange fluorescence; series mostly up to 154 µM
Inconclusive results are not listed. The source made the active and inactive calls. Calls come from the whole dose curve; as a rule, active = well fitted activation curve with a large enough effect; inconclusive = small, poorly fitted or top-dose-only effect; inactive = no such curve, though single readings can be large or run the other way.
Your answer must be one of the following: 1 = active, -1 = inactive

QUERY: Could you check what this test reported for CCCCN1C(=O)/C(=C/c2ccc(N(C)C)cc2)C(=O)N(Cc2ccco2)C1=O ?
RESULT: -1

QUERY: Could you check what this test reported for Cn1ncnc2c(=O)n(C)c(=O)nc1-2 ?
RESULT: -1

QUERY: Could you check what this test reported for O=C1C=CC(=O)c2c(O)cccc21 ?
RESULT: -1

QUERY: Could you check what this test reported for CN1CC[C@@]2(C)c3cc(O)ccc3N(C)[C@@H]12 ?
RESULT: -1

QUERY: Could you check what this test reported for CC(C)CCn1c(=O)c(C(=O)Nc2ccccc2S(N)(=O)=O)c(O)c2ccccc21 ?
RESULT: -1

QUERY: Could you check what this test reported for CC(C)=CCCC1(C)C=Cc2c(O)c3c(c(CC=C(C)C)c2O1)OC12C(=CC4CC1C(C)(C)OC2(C/C=C(/C)C(=O)O)C4=O)C3=O (stereo unspecified) ?
RESULT: -1

QUERY: Could you check what this test reported for COc1ccc(-n2c(O)c(/C=C3\C=Nc4ccc(Br)cc43)c(=O)[nH]c2=O)c(OC)c1 ?
RESULT: -1

QUERY: Could you check what this test reported for c1ccc(C(c2ccccc2)c2cccnc2)cc1 ?
RESULT: -1

QUERY: Could you check what this test reported for Cc1cc(C=C2C(=O)NC(=S)NC2=O)c(C)n1C1CCCC1 ?
RESULT: -1

QUERY: Could you check what this test reported for Cc1ccc(N)c(C(=O)c2ccc(Br)cc2)c1 ?
RESULT: -1

QUERY: Could you check what this test reported for COc1ccc(-n2c(/C=C/c3ccc(O)c(O)c3)nc3ccccc3c2=O)cc1 ?
RESULT: -1

QUERY: Could you check what this test reported for CC1=C(O)C(=O)C=C2C1=CC=C1C2(C)CCC2(C)C3CC(C)(C(=O)O)CCC3(C)CCC12C (stereo unspecified) ?
RESULT: -1

====

- EXPERIMENTAL_DETAILS: qHTS assay for environmental chemicals that activate the Aryl hydrocarbon Receptor (AhR) signaling pathway (AID 651777); further: % of control where 0% means no effect; nearly all actives have a fitted effect of over 15% in size
- RUN_CONDITIONS: 1A2-DRE human hepatoma cells, luciferase, 24 h; stronger effect = higher value
- From the text: National Center for Advancing Translational Sciences [NCATS] NIH Chemical Genomics Center [NCGC] U.S. Environmental Protection Agency [EPA] National Institutes of Environmental Health Sciences [NIEHS] National Toxicology Program [NTP] The Aryl hydrocarbon Receptor (AhR) plays a critical role in the development of cancer or neoplasm and its formation is most likely due to genetic mutations and the influence of environment. […]
Records with an inconclusive call do not appear.
Let's look at some molecules and their measured activation.
Write the value in % as a bare number.

Observe how each entry below is paired with its result.
[[record]]
molecule = "CCS(=O)CCSP(=O)(OC)OC (stereo not given)"
value_observed = -0.491

[[record]]
molecule = "CNC(=O)Oc1cccc2c1OC(C)(C)O2"
value_observed = 1.33

[[record]]
molecule = "O=S1OCC2C(CO1)C1(Cl)C(Cl)=C(Cl)C2(Cl)C1(Cl)Cl (stereo not given)"
value_observed = -0.06


Value of measured activation for the entry CCC(=O)Nc1ccc(Cl)c(Cl)c1 : 4.76

Value of measured activation for the entry CNC(=O)N(C)c1nnc(C(C)(C)C)s1 : 3.03

Value of measured activation for the entry COC1=CC(=O)OC(CCc2ccccc2)C1 (stereo not given) : 1.87

Value of measured activation for the entry N#Cc1c(Cl)cccc1Cl : -0.167
